Biological target: T1, recombinant YFV E protein (soluble E, sE; YFV Asibi strain) (Yellow fever virus, Asibi strain, UniProt Q6DV88 286-678)
T1 construct: also called YFV E antigen; YFV E monomer
T1 sequence (Q6DV88 286-678): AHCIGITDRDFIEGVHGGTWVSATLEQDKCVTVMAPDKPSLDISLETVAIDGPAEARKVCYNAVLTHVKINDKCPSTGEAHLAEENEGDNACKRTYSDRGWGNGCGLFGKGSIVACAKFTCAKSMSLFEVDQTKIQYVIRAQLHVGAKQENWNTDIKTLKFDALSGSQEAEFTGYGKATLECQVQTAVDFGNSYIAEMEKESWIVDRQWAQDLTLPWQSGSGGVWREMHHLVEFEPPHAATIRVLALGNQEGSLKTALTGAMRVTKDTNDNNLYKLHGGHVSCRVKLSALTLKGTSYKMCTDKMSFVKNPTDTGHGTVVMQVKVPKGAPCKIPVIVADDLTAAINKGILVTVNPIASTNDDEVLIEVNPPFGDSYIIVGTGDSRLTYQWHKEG
Test: BLI monovalent (IgG on tip)
pKd: −log10 of the molar value.

{"binder": "ADI-49040 (antibody, V domains shown, full-length IgG; also called Antibody Number 74) VH: EVQLVESGGALVHPGGSLGLSCAASGFTFSDHYMDWVRQAPGKGLEWVGRIRNKPNSYATQYAASVKGRFTISRDDSKKSLYLQMNSLNTEDTAVYYCARVRDGEYDYWGQGTLVTVSS VL: DIQMTQSPSTLSASVGDRVTITCRASQSISTWLAWYQLKPGKAPKLLIYKASNLQSGVPSRFSGSGSGTEFTLTISSLQPDDFATYYCQQYNSYSPWGQGTKLEIK", "result comparator": "=", "pKd": 9.00}
{"binder": "ADI-45078 (antibody, V domains shown, full-length IgG; also called Antibody Number 82) VH: EVQLVESGGGLIQPGGSLRLSCAASGFSFSSHAMTWVRQAPGKGLQWVSSIRGSDRTTNYADSVKGRFTVSRDNSKNTLYLQMNSLRAEDTAIYYCAKYYDSSGYYYFDHWGQGTLVTVSS VL: DIRMTQSPSTLSASIGDRVTITCRASQSISDWLAWYLQKPGKAPSLLIYRASSLETGVPSRFSGRGSGTEFTLTISSLQPDDFGTYYCQQYNRDPYTFGQGTKVDIK", "result comparator": "=", "pKd": 8.23}
{"binder": "ADI-45083 (antibody, V domains shown, full-length IgG; also called Antibody Number 9) VH: QVQLVESGPGLVKPSGTLSLTCAVSGGSISSDYWWSWVRQPPGKGLEYIGEIYHTGSTNYNPSLKSRVTVSLDRSKNVFSLTLRSVTAADTAVYYCARSHWRSPQSVTFDLWGQGTTVTVSS VL: QPVLTQPPSVSAAPGQKVTISCSGSNSNIGNYYVSWYQQFPGTAPKLLIYDNNKRPSGIPDRFSGSKSGTSATLAITGLQTGDEAHYYCGTWDTSSLSAGRVFGGGTKLTVL", "result comparator": "=", "pKd": 8.46}
{"binder": "ADI-42149 (antibody, V domains shown, full-length IgG) VH: QVQLVQSGAEVRKPGASVKVSCKASGYTFTSYGISWVRQAPGQGLEWMGWISTYNGNTNYAQKLQGRVTMTTDTSTSTAYMELRSLRSDDTAVYYCAREIDSNYVFDYWGQGTLVTVSS VL: QSVLTQPASVSGSPGQSITISCTGTSSDVGGYNYVSWYQQHPGKAPKLMIYEVSNRPSGVSNRFSGSKSGNTASLTISGLQAEDEADYYCSSYTSSGTNIFGTGTKLTVL", "result comparator": "=", "pKd": 6.75}
{"binder": "ADI-42198 (antibody, V domains shown, full-length IgG; also called Antibody Number 21) VH: EVQLVESGPGLVKPSGTLSLTCAVSGGSISSNKWWSWVRQPPGKGLEWIGEIYHSGSTSYNPSLKSRVSISVDKSKNQFSLKLSSVTAADTAVYYCARVEWAYSSSWWLDYWGQGTLVTVSS VL: QSVLTQPPSVSAAPGQKVTISCSGSSSNIGNNYVSWYQQLPGTAPKLLIYDNNKRPSGIPDRFSGSKSGTSATLGITGLQTGDEADYICGTWDTSLSAGGVFGGGTKLTVL", "result comparator": "=", "pKd": 7.48}
{"binder": "ADI-49154 (antibody, V domains shown, full-length IgG; also called Antibody Number 23) VH: QVQLQESGPGLVKPSGTLSLTCAVSGSSITSSHWWSWVRQPPGKGLAWIGDIYHSGGTTYNPSLKSRVTISVDKSKNQFSLKLSSVTAADTAVYYCARVSVSTSAWYADYWGQGTLVTVSS VL: QSVLTQPPSVSAAPGQKVTISCSGSSSNIGNNYVSWYQQLPGTAPKLLIYDNNKRPSGIPDRFSGSKSGTSATLGITGLQTGDEANYYCGTWDTSLSTVFGGGTKLTVL", "result comparator": "=", "pKd": 6.85}
{"binder": "ADI-50026 (antibody, V domains shown, full-length IgG; also called Antibody Number 33) VH: EVQLLESGGGVVQPGRSLRLSCAASGFTFTTYAMHWVRQAPGKGLEWVAAVSYDGNNKYYADSVKGRFTISRDNSRNTLYLQMNSLRAEDTAVYFCARNTYYDRSGLIAYWGQGALVTVSS VL: DIQVTQSPSSLSASVGDRVTITCQASQDISNYLNWYQHKPGRAPKLLIYDASNLERGVPSRFSGSGSGTDFTFTISSLQPEDIATYYCQQYDNLSRLTFGGGTKLEIK", "result comparator": "<", "pKd": 7.00}
{"binder": "ADI-42831 (antibody, V domains shown, full-length IgG; also called Antibody Number 46) VH: EVQLVESGGGLVQPGGSLRLSCAASGFTFINYAMTWVRQAPGKGLEWVSAISGNGDGTYYADSVKGRFTLSRDNAKNTIYLHMSALRDEDTALYYCAKDQGVTTDWPSDYWGQGTLVTVSS VL: DIRLTQSPSTLSASVGDRVTVTCRASQNINTYLAWYQQIPGKAPRLLIYRASTLESGVPSRFSGSGSGTEFTLTINSLQPDDYATYYCQHYETYSVRFGQGTKVEIK", "result comparator": "=", "pKd": 7.71}
{"binder": "ADI-49044 (antibody, V domains shown, full-length IgG; also called Antibody Number 8) VH: QVQLVESGGGVVQPGRSLRLSCAASGFAFSSYGMHWVRQAPGKGLEWVAGMRFDGTKIYYADSVKGRFTISRDNSKNTLYLQMNSLRAEDTAVYFCARDLEVGAEYIYYYYGMDVWGQGTTVTVSS VL: QPVLTQPPSASGTPGQRVTISCSGSSSNIGTNTVSWYQQLPGTAPQLLVFSRTQRPSGVPDRFSGSKSGTSASLAISGLQSDDEADYYCAAWDDSRNGWVFGGGTKLTVL", "result comparator": "=", "pKd": 8.73}
{"binder": "ADI-42141 (antibody, V domains shown, full-length IgG; also called Antibody Number 111) VH: QVQLVQSGGGLVQPGGSLRLSCAASGFTFSDHYMDWVRQAPGKGLEWVGRTRNKANSYTTKYAASVKGRFTISRDDSKNSLYLQMNSLKTEDTAVYYCARVEGGAWGAFDIWGQGTTVTVSS VL: SYVLTQPPSVSVSPGQTARITCSGDALPKQYGYWYQQKPGQAPVLVIYKDSERPSGIPERFSGSSSGTTVTLTISGVQAEDEADYYCQSADRSGTVVFGGGTKLTVL", "result comparator": "=", "pKd": 8.76}
